assayed system: IKK-2 (Homo sapiens)
Construct: made in house; host or cells: baculovirus (pFastBac) in insect cells; SF9
Sequence (O14920 whole entry): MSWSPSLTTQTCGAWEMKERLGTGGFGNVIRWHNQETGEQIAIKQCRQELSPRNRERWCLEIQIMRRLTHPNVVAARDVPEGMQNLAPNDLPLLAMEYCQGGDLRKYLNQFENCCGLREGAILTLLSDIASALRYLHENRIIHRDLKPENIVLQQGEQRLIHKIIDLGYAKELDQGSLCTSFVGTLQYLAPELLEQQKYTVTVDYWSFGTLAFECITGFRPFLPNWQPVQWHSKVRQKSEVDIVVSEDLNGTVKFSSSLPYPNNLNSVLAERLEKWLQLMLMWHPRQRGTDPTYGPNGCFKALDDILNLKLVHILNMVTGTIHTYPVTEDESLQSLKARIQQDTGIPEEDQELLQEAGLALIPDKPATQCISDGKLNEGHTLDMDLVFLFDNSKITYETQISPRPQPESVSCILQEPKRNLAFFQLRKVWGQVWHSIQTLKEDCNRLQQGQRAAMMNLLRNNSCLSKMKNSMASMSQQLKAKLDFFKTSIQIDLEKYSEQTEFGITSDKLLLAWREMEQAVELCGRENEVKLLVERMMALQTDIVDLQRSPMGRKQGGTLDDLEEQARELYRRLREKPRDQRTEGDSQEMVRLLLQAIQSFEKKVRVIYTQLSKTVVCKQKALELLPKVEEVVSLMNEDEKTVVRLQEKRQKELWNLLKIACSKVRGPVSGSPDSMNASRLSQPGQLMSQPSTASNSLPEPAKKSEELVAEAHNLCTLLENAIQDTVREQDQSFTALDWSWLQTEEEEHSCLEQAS
method notes: IKK-2 Resin assay (IKKβ Resin Enzyme Assay)
Type: biochemical
condition details: rhIKK2 homodimer, 5 μM biotinylated IκBα peptide, 1 μM ATP, 25° C., 30 min
Counter-ions that a name gives are not always drawn.
parameter: IC50

[in] Recorded IC50 for NC(=O)Nc1c(C(N)=O)sc2c1CCc1ccccc1-2 [Example 5] , please?
[out] 10 to 20 µM

[in] Next: COc1ccc2c(c1)-c1sc(C(N)=O)c(N)c1CC2 [Example 2]
[out] 1 to 10 µM

[in] How about this compound: NCCCNc1c(C(N)=O)sc2c1CCc1ccccc1-2 [Example 4, hydrochloride]
[out] 10 to 20 µM

[in] What do you have for NC(=O)Nc1sc2c(c1C(N)=O)CCc1ccccc1-2 [Example 8] ?
[out] ≤ 1 µM

[in] NCCNc1c(C(N)=O)sc2c1CCc1ccccc1-2 [Example 3, hydrobromide] , same question.
[out] 1 to 10 µM

[in] Follow-up entry: N#Cc1c(N)sc2c1CCc1ccccc1-2 [Example 6]
[out] 10 to 20 µM

[in] What do you get for NC(=O)c1sc2c(c1N)CCc1ccccc1-2 [Example 1] ?
[out] 10 to 20 µM

[in] Please give the result for CC(=O)Nc1sc2c(c1C(N)=O)CCc1ccccc1-2 [Example 7] too.
[out] 10 to 20 µM
